Just for reference, paper PMC9865825 is where these values come from.

- System: human foreskin fibroblasts (HFF)
- EXPERIMENT_DESCRIPTION: in vitro
- CONDITION: 1 µM
HFF Viability (%) for assorted compounds
MEASURE: HFF Viability (%)

COMPOUND	MEASURED_TARGET	ASSAY_VALUE
CC(=O)OC[C@H]1O[C@@H](OCCn2cc(CCCC(=O)Nc3ccc([S-])cc3)nn2)[C@H](OC(C)=O)[C@@H](OC(C)=O)[C@H]1OC(C)=O.CC(C)(C)c1ccc(C[S-])cc1.CC(C)(C)c1ccc(C[S-])cc1.Cc1ccc(C(C)C)cc1.Cc1ccc(C(C)C)cc1.[Cl-].[Ru+2].[Ru+2] [Compound 22]	human foreskin fibroblasts (HFF)	101
CC(=O)OC[C@H]1O[C@@H](n2cc(CCCC(=O)Nc3ccc([S-])cc3)nn2)[C@H](OC(C)=O)[C@@H](OC(C)=O)[C@@H]1OC(C)=O.CC(C)(C)c1ccc(C[S-])cc1.CC(C)(C)c1ccc(C[S-])cc1.Cc1ccc(C(C)C)cc1.Cc1ccc(C(C)C)cc1.[Cl-].[Ru+2].[Ru+2] [Compound 20]	human foreskin fibroblasts (HFF)	99
CC(=O)OC[C@H]1O[C@@H](OCCCc2cn(Cc3ccccc3[S-])nn2)[C@H](OC(C)=O)[C@@H](OC(C)=O)[C@H]1OC(C)=O.CC(C)(C)c1ccc(C[S-])cc1.CC(C)(C)c1ccc(C[S-])cc1.Cc1ccc(C(C)C)cc1.Cc1ccc(C(C)C)cc1.[Cl-].[Ru+2].[Ru+2] [Compound 26]	human foreskin fibroblasts (HFF)	99

* * *

- System: human foreskin fibroblasts (HFF)
- EXPERIMENT_DESCRIPTION: in vitro
- CONDITION: 2.5 µM
MEASURE: HFF Viability at 2.5 µM (%)

COMPOUND	MEASUREMENT_UNIT	ASSAY_VALUE
CC(=O)OC[C@H]1O[C@@H](n2cc(CCCC(=O)Nc3ccc([S-])cc3)nn2)[C@H](OC(C)=O)[C@@H](OC(C)=O)[C@@H]1OC(C)=O.CC(C)(C)c1ccc(C[S-])cc1.CC(C)(C)c1ccc(C[S-])cc1.Cc1ccc(C(C)C)cc1.Cc1ccc(C(C)C)cc1.[Cl-].[Ru+2].[Ru+2] [Compound 20]	%	77
CC(=O)OC[C@H]1O[C@@H](OCCCc2cn(Cc3ccccc3[S-])nn2)[C@H](OC(C)=O)[C@@H](OC(C)=O)[C@H]1OC(C)=O.CC(C)(C)c1ccc(C[S-])cc1.CC(C)(C)c1ccc(C[S-])cc1.Cc1ccc(C(C)C)cc1.Cc1ccc(C(C)C)cc1.[Cl-].[Ru+2].[Ru+2] [Compound 26]	%	97
CC(=O)OC[C@H]1O[C@@H](n2cc(CCCC(=O)Oc3ccc([S-])cc3)nn2)[C@H](OC(C)=O)[C@@H](OC(C)=O)[C@@H]1OC(C)=O.CC(C)(C)c1ccc(C[S-])cc1.CC(C)(C)c1ccc(C[S-])cc1.Cc1ccc(C(C)C)cc1.Cc1ccc(C(C)C)cc1.[Cl-].[Ru+2].[Ru+2] [Compound 19]	%	29
CC(=O)OC[C@H]1O[C@@H](OCCCn2cc(CCCC(=O)Nc3ccc([S-])cc3)nn2)[C@H](OC(C)=O)[C@@H](OC(C)=O)[C@H]1OC(C)=O.CC(C)(C)c1ccc(C[S-])cc1.CC(C)(C)c1ccc(C[S-])cc1.Cc1ccc(C(C)C)cc1.Cc1ccc(C(C)C)cc1.[Cl-].[Ru+2].[Ru+2] [Compound 23]	%	92
CC(=O)OC[C@H]1O[C@@H](OCCn2cc(CCCC(=O)Nc3ccc([S-])cc3)nn2)[C@H](OC(C)=O)[C@@H](OC(C)=O)[C@H]1OC(C)=O.CC(C)(C)c1ccc(C[S-])cc1.CC(C)(C)c1ccc(C[S-])cc1.Cc1ccc(C(C)C)cc1.Cc1ccc(C(C)C)cc1.[Cl-].[Ru+2].[Ru+2] [Compound 22]	%	73
